# system-under-test: bovine cardiac myosin (Bos taurus (Bovine))
# assay-summary: Myosin inhibitory potency: PK/LDH-coupled ATPase assay on bovine skinned cardiac myofibrils
# condition-details: pCa=6.25, 50 μM ATP, 25° C., read-out: myosin inhibition activity IC50
# Protocol: The average rates of ATPase inhibition, and the IC50 values are determined by Victor Nivo multimode plate reader (PerkinElmer, USA). As to the assays background, a biochemical assay couples the ATPase activity of bovine cardiac myosin to an enzymatic coupling system consisting of pyruvate kinase and lactate dehydrogenase (PK/LDH) and monitoring the absorbance decrease of NADH (at 340 nm) as a function of time to measure the inhibitory ability of small molecule agents. […]
pIC50 listing for selected compounds.
// pIC50 is dimensionless: -log10 of concentration (M)

INSERT INTO measurements (compound, number) VALUES
  ('CC(Nc1nc(=O)n(C2CCOCC2)c(=O)[nH]1)C1CCCCCC1 (centres unmarked) [Example 109]', 5.34),
  ('CC(C)n1c(=O)nc(N[C@H](c2cccc(C(C)(C)C#N)c2)C(F)F)[nH]c1=O [Example 264]', 5.86),
  ('Cc1cccc([C@H](Nc2nc(=O)n(C3CCOCC3)c(=O)[nH]2)C(F)F)c1 [Example 284]', 6.54),
  ('CC(Nc1nc(=O)n(C2CCOCC2)c(=O)[nH]1)c1ccc(C(F)(F)F)cc1 (centres unmarked) [Example 131]', 5.60);

Please fill in: pIC50 reported for C[C@H](Nc1nc(=O)n([C@H]2CC[C@H](F)CC2)c(=O)[nH]1)C1CCCCC1 [Example 87] = 6.35

Memo: C[C@H](Nc1nc(=O)n(C2CCN(CCF)CC2)c(=O)[nH]1)C1CCCCC1 [Example 300] , reported pIC50: 5.64

Form field pIC50, entry C[C@H](Nc1nc(=O)n(C2CCOCC2)c(=O)[nH]1)c1cccc(F)c1 [Example 124] : 5.76

Lab note: measured pIC50 of C[C@H](Nc1nc(=O)n(C2CCOCC2)c(=O)[nH]1)c1ccc(Cl)cc1 [Example 251] was 6.02

get_value(item= C[C@H](Nc1nc(=O)n(C2CCOCC2)c(=O)[nH]1)c1cccc(F)c1F [Example 170] , readout=pIC50) returns 5.82

---

# system-under-test: bovine cardiac myosin (Bos taurus (Bovine))
# assay-summary: Myosin inhibitory potency: PK/LDH-coupled ATPase assay on bovine skinned cardiac myofibrils
# condition-details: pCa=6.25, 50 μM ATP, 25° C., read-out: myosin inhibition activity IC50
property-measured: IC50 (nM)
Numbers only here, please. The scale is nM.

INSERT INTO assay_data (compound, system_under_test, property_measured, number) VALUES
  ('CC(C)n1c(=O)nc(N[C@@H](C)c2ccc(Cl)c(Cl)c2)[nH]c1=O', 'bovine cardiac myosin (Bos taurus (Bovine))', 'IC50', 1170);

GET /value?item= `Cc1cc([C@H](C)Nc2nc(=O)n([C@H]3CCOC[C@H]3F)c(=O)[nH]2)ccc1F` &field=IC50 returns 1590

IC50 for `C[C@H](Nc1nc(=O)n(C2CCOCC2)c(=O)[nH]1)c1cccc(CC(F)(F)F)c1` is 390

Looking up O=c1nc(NC(C2CCCCC2)C(F)(F)F)[nH]c(=O)n1C1CCOCC1 (centres unmarked) , I found its IC50 recorded as 6120

IC50 recorded for this compound, CC(Nc1nc(=O)n(C2CCOCC2)c(=O)[nH]1)C1CC2(CCC2)C1 (centres unmarked) , is 9000

---

# system-under-test: bovine cardiac myosin (Bos taurus (Bovine))
# assay-summary: Myosin inhibitory potency: PK/LDH-coupled ATPase assay on bovine skinned cardiac myofibrils
# condition-details: pCa=6.25, 50 μM ATP, 25° C., read-out: myosin inhibition activity IC50
property-measured: pIC50
Note on units: pIC50 is unitless, being -log10 of a concentration expressed in mol/L.

INSERT INTO measurements (smiles_text, number) VALUES
  ('Cc1cc(C)cc([C@H](C)Nc2nc(=O)n(C3CCOCC3)c(=O)[nH]2)c1', 5.83),
  ('C[C@H](Nc1nc(=O)n([C@H]2CCOC[C@H]2F)c(=O)[nH]1)c1cccc(C(F)(F)F)c1', 5.83),
  ('Cc1cc([C@H](C)Nc2nc(=O)n(C3CCOCC3)c(=O)[nH]2)ccc1F', 5.95),
  ('C[C@H](Nc1nc(=O)n([C@@H](C)C(F)(F)F)c(=O)[nH]1)c1ccc(Cl)c(Cl)c1', 5.97),
  ('C[C@H](Nc1nc(=O)n(C2CCOCC2)c(=O)[nH]1)c1cccc(C#N)c1', 5.90);

// pIC50 lookup, compound = `C[C@H](Nc1nc(=O)n(C2CCOCC2)c(=O)[nH]1)c1cccc(-c2cncnc2)c1` , result: 6.05

pIC50 in this record for `C[C@H](Nc1nc(=O)n([C@@H]2CCOC[C@@H]2F)c(=O)[nH]1)c1ccc(Cl)c(Cl)c1` : 5.99

The recorded pIC50 for entry `Cc1ccc(F)c([C@H](C)Nc2nc(=O)n([C@H](C)C(F)(F)F)c(=O)[nH]2)c1` equals 6.06

---

# system-under-test: bovine cardiac myosin (Bos taurus (Bovine), UniProt Q9BE39)
# Sequence (Q9BE39 whole entry): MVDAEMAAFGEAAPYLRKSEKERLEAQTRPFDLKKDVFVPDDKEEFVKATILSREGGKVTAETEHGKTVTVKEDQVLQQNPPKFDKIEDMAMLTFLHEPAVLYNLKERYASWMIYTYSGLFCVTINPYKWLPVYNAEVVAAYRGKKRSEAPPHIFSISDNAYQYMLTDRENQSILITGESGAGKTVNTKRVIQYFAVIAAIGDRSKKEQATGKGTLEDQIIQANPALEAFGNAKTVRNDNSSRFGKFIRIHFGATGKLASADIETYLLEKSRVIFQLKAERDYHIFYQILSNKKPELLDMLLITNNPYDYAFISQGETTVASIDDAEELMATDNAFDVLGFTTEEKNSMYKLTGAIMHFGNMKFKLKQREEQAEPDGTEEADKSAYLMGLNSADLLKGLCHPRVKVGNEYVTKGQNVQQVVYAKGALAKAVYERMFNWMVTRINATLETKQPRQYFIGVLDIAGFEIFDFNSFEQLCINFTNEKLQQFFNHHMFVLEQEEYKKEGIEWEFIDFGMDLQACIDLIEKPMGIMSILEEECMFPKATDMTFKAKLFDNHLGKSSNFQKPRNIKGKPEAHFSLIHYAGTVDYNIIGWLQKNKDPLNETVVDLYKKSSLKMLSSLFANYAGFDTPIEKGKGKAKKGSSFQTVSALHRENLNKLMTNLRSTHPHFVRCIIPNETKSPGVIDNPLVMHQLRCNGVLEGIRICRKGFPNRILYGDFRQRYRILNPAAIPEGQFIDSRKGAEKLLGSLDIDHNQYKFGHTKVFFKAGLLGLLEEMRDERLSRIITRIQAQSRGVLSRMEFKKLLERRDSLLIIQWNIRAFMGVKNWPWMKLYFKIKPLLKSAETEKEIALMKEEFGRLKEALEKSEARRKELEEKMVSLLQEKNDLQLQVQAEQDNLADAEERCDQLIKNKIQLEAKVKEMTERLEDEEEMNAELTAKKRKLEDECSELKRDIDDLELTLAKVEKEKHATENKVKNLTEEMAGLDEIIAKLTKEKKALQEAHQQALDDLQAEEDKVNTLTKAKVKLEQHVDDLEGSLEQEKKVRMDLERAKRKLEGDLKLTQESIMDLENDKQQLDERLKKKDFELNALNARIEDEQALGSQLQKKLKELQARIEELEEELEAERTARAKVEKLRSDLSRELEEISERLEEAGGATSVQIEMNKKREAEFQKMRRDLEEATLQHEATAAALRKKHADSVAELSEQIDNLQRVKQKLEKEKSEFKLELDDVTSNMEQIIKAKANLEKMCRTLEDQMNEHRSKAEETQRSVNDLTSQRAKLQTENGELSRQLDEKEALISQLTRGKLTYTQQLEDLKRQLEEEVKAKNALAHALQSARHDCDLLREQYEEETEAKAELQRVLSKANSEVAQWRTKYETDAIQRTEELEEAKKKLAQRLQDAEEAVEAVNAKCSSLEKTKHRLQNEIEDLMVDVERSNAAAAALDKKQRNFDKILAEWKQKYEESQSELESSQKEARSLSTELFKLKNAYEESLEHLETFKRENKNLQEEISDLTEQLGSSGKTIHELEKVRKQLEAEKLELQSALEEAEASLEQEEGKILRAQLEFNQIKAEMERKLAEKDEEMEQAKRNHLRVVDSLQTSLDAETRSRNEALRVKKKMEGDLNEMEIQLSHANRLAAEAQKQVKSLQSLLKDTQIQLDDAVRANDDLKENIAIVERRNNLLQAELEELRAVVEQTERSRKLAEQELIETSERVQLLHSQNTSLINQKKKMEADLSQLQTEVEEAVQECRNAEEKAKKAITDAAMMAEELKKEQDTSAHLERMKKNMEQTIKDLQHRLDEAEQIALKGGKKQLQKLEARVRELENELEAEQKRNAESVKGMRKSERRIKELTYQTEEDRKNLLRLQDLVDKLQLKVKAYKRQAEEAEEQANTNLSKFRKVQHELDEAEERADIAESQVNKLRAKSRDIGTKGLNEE
# Sequence (P85100 whole entry partner): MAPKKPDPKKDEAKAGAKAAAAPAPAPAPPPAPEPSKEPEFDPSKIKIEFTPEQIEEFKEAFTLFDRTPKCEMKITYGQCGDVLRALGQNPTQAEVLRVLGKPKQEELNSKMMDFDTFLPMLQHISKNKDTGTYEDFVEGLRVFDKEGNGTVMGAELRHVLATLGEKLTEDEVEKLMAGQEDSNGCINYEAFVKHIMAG
# Sequence (Q3SZE5 whole entry partner): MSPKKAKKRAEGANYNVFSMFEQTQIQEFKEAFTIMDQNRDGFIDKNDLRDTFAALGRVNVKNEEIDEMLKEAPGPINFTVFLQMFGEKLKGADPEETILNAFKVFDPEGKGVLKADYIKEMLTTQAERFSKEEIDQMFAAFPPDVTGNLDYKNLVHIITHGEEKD
# assay-summary: Myosin inhibitory potency: PK/LDH-coupled ATPase assay on bovine skinned cardiac myofibrils
# condition-details: pCa=6.25, 50 μM ATP, 25° C., read-out: myosin inhibition activity IC50
property-measured: IC50 (nM)
Give just the numeric value; nM need not be written.

Here are 10 molecules together with their reported answers.
INSERT INTO measurements (molecule, number) VALUES
  ('C[C@H](Nc1nc(=O)n([C@@H](C)C(F)(F)F)c(=O)[nH]1)c1cccc(C(F)(F)F)c1 [Example 332]', 1390),
  ('CC(C)n1c(=O)nc(N[C@@H](C)c2cccc(C(F)(F)F)c2)[nH]c1=O [Example 322]', 1210),
  ('C[C@H](Nc1nc(=O)n(C2CCOCC2)c(=O)[nH]1)c1ccc(C(F)F)cc1 [Example 157]', 1000),
  ('COC[C@H](Nc1nc(=O)n(C2CCOCC2)c(=O)[nH]1)c1cccc(C)c1 [Example 294]', 880),
  ('C[C@H](Nc1nc(=O)n([C@@H](C)C(F)(F)F)c(=O)[nH]1)C1CCCCC1 [Example 14]', 1170),
  ('C[C@H](Nc1nc(=O)n(C2CCOCC2)c(=O)[nH]1)c1cccc(-c2ccccc2F)c1 [Example 224]', 700),
  ('C[C@H](Nc1nc(=O)n(C2CCOCC2)c(=O)[nH]1)c1ccc2c(c1)OC(F)(F)O2 [Example 298]', 880),
  ('Cc1noc(C)c1-c1cccc([C@H](C)Nc2nc(=O)n(C3CCOCC3)c(=O)[nH]2)c1 [Example 198]', 1210),
  ('CC(=O)N1CCC(c2cccc([C@H](C)Nc3nc(=O)n(C4CCOCC4)c(=O)[nH]3)c2)CC1 [Example 329]', 1240),
  ('Cc1ccc(F)c([C@H](C)Nc2nc(=O)n([C@H]3CCOC[C@H]3F)c(=O)[nH]2)c1 [Example 314]', 770);

The recorded IC50 for CC(C)n1c(=O)nc(N[C@H](c2cccc(C3CN(CC(F)(F)F)C3)c2)C(F)F)[nH]c1=O [Example 261] is 760

Please fill in: IC50 reported for C[C@@H](Nc1nc(=O)n(C2CCOCC2)c(=O)[nH]1)c1ccc(C(F)(F)F)cc1 [Example 333] = 1030

---

# system-under-test: bovine cardiac myosin (Bos taurus (Bovine), UniProt Q9BE39)
# assay-summary: Myosin inhibitory potency: PK/LDH-coupled ATPase assay on bovine skinned cardiac myofibrils
# condition-details: pCa=6.25, 50 μM ATP, 25° C., read-out: myosin inhibition activity IC50
# Procedure: The average rates of ATPase inhibition, and the IC50 values are determined by Victor Nivo multimode plate reader (PerkinElmer, USA). As to the assays background, a biochemical assay couples the ATPase activity of bovine cardiac myosin to an enzymatic coupling system consisting of pyruvate kinase and lactate dehydrogenase (PK/LDH) and monitoring the absorbance decrease of NADH (at 340 nm) as a function of time to measure the inhibitory ability of small molecule agents. […]
One threshold, 1 µM, splits the recorded IC50 values: lower ones are condition met, equal or higher ones are condition not met.

INSERT INTO assay_data (molecule, assigned_label) VALUES
  ('Cc1cccc([C@H](C)Nc2nc(=O)n([C@H]3CC[C@@H](NC(=O)OC(C)(C)C)CC3)c(=O)[nH]2)c1 [Example 96]', 'condition not met');

// switching to the query molecule
## Input Check if IC50 falls below 1 µM for C[C@H](Nc1nc(=O)n([C@H](C)C(F)(F)F)c(=O)[nH]1)c1ccc(Cl)c(Cl)c1 [Example 323] .
## Output condition met
